Molecular target: washed human platelets (Homo sapiens, UniProt P25116)
Sequence (P25116 42-425): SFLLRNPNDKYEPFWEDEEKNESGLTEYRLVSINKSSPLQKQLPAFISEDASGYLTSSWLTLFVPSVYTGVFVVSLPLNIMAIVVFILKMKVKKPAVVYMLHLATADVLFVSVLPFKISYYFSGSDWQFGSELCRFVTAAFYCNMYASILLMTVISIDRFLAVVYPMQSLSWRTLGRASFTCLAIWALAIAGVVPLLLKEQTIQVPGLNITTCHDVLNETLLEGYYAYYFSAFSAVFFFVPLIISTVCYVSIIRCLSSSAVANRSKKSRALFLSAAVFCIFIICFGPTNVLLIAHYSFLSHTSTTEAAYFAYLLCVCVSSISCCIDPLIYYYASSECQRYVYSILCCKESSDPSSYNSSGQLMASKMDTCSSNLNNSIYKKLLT
Details: read-out: EC50 (concentration required to elicit a 50% maximal aggregation); washed human platelets
pEC50: −log10 of the molar value. Square brackets hold non-standard residues; d marks the D form. Peptide text beside a SMILES is read from it. 2Nal = N[C@@H](Cc1ccc2ccccc2c1)C(=O)O; 2Thi = N[C@@H](Cc1cccs1)C(=O)O; Cha = N[C@@H](CC1CCCCC1)C(=O)O
Property name: pEC50

- Molecule: "CC(C)C[C@H](NC(=O)[C@H](CC1CCCCC1)NC(=O)[C@H](Cc1ccccc1)NC(=O)[C@@H](N)CO)C(=O)N[C@@H](CCCNC(=N)N)C(N)=O [SF(Cha)LR-NH2] (H-SF[Cha]LR-NH2)"
  Property name: "pEC50"
  Qualifier sign: "="
  Measured number: 5.82
- Molecule: "CC(C)C[C@H](NC(=O)[C@H](CC(C)C)N(C)C(=O)[C@H](Cc1ccccc1)NC(=O)[C@@H](N)CO)C(=O)N[C@@H](CCCN=C(N)N)C(N)=O"
  Property name: "pEC50"
  Qualifier sign: "<"
  Measured number: 3.00
- Molecule: "CC(C)C[C@H](NC(=O)[C@H](CC(C)C)NC(=O)[C@H](Cc1ccccc1)NC(=O)[C@@H](N)CO)C(=O)N[C@@H](CCCN=C(N)N)C(N)=O"
  Property name: "pEC50"
  Qualifier sign: "="
  Measured number: 5.12
- Molecule: "CC(C)C[C@H](NC(=O)[C@H](CC(C)C)NC(=O)[C@H](Cc1ccccc1)NC(=O)[C@@H](N)CO)C(N)=O [SFLL-NH2] (H-SFLL-NH2)"
  Property name: "pEC50"
  Qualifier sign: "="
  Measured number: 3.84
- Molecule: "CC(C)C[C@H](NC(=O)[C@H](CC(C)C)NC(=O)[C@H](Cc1cccs1)NC(=O)[C@@H](N)CO)C(=O)N[C@@H](CCCNC(=N)N)C(N)=O [S(Thi)LLR-NH2] (H-S[2Thi]LLR-NH2)"
  Property name: "pEC50"
  Qualifier sign: "="
  Measured number: 5.12
- Molecule: "CC(C)C[C@H](NC(=O)[C@H](Cc1ccccc1)NC(=O)[C@@H](N)CO)C(=O)N[C@@H](Cc1ccc2ccccc2c1)C(=O)N[C@@H](CCCNC(=N)N)C(=O)N[C@@H](CC(N)=O)C(N)=O [SFL(Nal)RN-NH2] (H-SFL[2Nal]RN-NH2)"
  Property name: "pEC50"
  Qualifier sign: "="
  Measured number: 5.12
